Assayed system: T1, human PDGFRB extracellular domain (human, UniProt P09619 33-532)
T1 construct: extracellular domain; also called hPDGFRB-ECD; human PDGFRB ectodomain
T1 sequence (P09619 33-532): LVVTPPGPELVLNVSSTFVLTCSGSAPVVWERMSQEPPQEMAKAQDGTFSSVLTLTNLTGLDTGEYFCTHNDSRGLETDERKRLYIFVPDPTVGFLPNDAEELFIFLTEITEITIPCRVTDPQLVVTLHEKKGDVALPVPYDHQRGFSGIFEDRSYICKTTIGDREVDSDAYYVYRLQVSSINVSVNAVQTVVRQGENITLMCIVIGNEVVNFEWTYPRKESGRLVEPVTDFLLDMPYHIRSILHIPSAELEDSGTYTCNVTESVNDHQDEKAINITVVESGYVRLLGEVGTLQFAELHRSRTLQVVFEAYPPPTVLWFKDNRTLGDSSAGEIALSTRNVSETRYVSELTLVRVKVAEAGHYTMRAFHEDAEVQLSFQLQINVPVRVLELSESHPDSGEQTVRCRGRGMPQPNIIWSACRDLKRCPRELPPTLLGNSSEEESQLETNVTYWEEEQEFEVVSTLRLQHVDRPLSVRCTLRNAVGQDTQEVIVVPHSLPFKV
Assay method text: binding assay on immobilised human PDGFRB ectodomain, apparent affinity (Example 4)

| Binder | binding result |
| --- | --- |
| SP21P (VHH, Llama VHH; on phage in the phage ELISA) VHH: EVQLVESGGGLVQPGGSLRLSCVVSGSSFSSYTMGWFRRAPGKQRELVAGVSTVGDTAAADSVKGRFTISRDNAKNTVYLQMNSLKPEDTAVYYCNTYPHAYLEWGQGTQVTVSS | binds |
| SP15P (VHH, Llama VHH; on phage in the phage ELISA) VHH: EVQLVESGGGLVQAGGSLRLSCAASGRAFGGPYMAWFRQTPGKGREFVAAISPSSVYTFYQDSVKGRFTISRDNTKNTAYLQMNSLKPEDTAVYYCAAEAAGEVRLETSYKYWGQGTQVTVSS | binds |
| SP17P (VHH, Llama VHH; on phage in the phage ELISA) VHH: EVQLVESGGGLVQPGGSLRLSCAASGLTFVNYAMGWFRQAPGKERELVAGIASSGRIYYADSVAGRFTISRDNARNTVNLQMNSMKPEDTAVYYCAGRRSFSSTSAADYNYWGQGTQVTVSS | binds |

// provenance: patent US20220143204A1
